// reported growth for each item listed
# Test system: ACHN renal
# assay details: NCI-60 one-dose screen, 48 h (100 = growth as untreated, 0 = no growth, -100 = all killed)
# conditions: 10 µM unless noted
This is part of a sample that, as a whole, favours compounds with a hit. Of some 83,000 tested, about 20% had one in any assay. The source made the active and inactive calls. How the source made its calls: active means growth percent below 10; inactive means the rest.

compound	target or system	growth
O=C(CSc1nnnn1-c1ccccc1)Nc1ccc(Oc2ccccc2)cc1	ACHN renal	99.7% (inactive)
c1ccc(Cn2cc3c(c2-c2ccccc2)CCc2cnoc2-3)cc1	ACHN renal	101% (inactive)
CCOC(=O)c1cnn(CC(C)O)c1NC(=O)NCc1ccccc1C(F)(F)F (configuration not stated)	ACHN renal	98.3% (inactive)

Report the value of growth obtained on ACHN renal for "O=CCCCOCc1ccccc1" .
101% (inactive)

Report the value of growth obtained on ACHN renal for "C[N+]1=C(/C=C/c2ccccc2Cl)C(C)(C)c2ccccc21" .
110% (inactive)

Report the value of growth obtained on ACHN renal for O=C(c1ccc(Br)cc1)C(Br)C(c1ccc(Cl)cc1)C(c1ccccc1)[N+](=O)[O-] (configuration not stated) .
102% (inactive)

Report the value of growth obtained on ACHN renal for "CCOC(=O)c1[nH]cc2c1CCc1sc(Nc3ccccn3)nc1-2" .
76.6% (inactive)

Report the value of growth obtained on ACHN renal for "COc1ccc(CNc2ccc3nc(NC(=O)CN4CCCCCC4)sc3c2)cc1" .
89.8% (inactive)

Data credit: PubChem BioAssay (NCI)
